molecular target: Gal(b1-3)GalNAc(b1-3)Gal(a1-4)Gal(b1-4)Glc; test: glycan array binding signal (z-score within array); higher = stronger binding; conditions: glycan notation: IUPAC condensed, linker removed
This is one part of a sample in which the strongest signals are shown more often than they occur.

{"binder": "Epa8 (Candida glabrata) (protein) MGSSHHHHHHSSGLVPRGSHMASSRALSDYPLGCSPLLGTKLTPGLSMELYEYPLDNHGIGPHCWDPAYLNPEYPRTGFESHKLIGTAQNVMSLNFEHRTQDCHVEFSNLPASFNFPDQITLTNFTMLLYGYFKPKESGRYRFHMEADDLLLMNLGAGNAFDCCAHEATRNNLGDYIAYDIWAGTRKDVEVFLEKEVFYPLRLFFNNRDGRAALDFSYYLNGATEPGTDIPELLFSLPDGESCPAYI", "glycan array binding signal (z-score)": 0.394}
{"binder": "Pbx1CASH domain (Cryptococcus neoformans) (protein) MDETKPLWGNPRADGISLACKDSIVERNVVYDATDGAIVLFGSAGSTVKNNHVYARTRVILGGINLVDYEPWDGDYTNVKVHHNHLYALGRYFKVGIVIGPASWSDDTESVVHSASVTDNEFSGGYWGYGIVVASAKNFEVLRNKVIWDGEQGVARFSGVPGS", "glycan array binding signal (z-score)": 0.926}
{"binder": "CVNH3T (Magnaporthe grisea) (protein) GSHIGPYGNYAGNFSGSSRDICLDGARLRAECRRGDGGYSTSVIDLNRYLSNDNGHFRWVSGGGGGGGTATVTVQQGDTLRDIGRRFDCDFHEIARRNNIQNEDLIYPGQVLQVPTKGGSGGGAGNFWDSARDVRLVDGGKVLEAELRYSGGWNRSRIYLDEHIGNRNGELIHC", "glycan array binding signal (z-score)": 6.38}
{"binder": "GH98CBM51-1 (Streptococcus pneumoniae) (protein) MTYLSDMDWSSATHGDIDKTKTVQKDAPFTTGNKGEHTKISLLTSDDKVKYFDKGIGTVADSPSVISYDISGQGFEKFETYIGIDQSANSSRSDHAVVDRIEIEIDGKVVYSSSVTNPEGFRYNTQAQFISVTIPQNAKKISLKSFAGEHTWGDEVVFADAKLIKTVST", "glycan array binding signal (z-score)": -0.191}
{"binder": "GH95CBM (Clostridium perfringens) (protein) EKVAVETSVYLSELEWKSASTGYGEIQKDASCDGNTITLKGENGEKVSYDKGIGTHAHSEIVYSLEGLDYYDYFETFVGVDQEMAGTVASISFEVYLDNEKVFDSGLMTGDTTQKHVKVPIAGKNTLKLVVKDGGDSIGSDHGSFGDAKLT", "glycan array binding signal (z-score)": 4.91}
{"binder": "SBD-G4S3-SBD (protein) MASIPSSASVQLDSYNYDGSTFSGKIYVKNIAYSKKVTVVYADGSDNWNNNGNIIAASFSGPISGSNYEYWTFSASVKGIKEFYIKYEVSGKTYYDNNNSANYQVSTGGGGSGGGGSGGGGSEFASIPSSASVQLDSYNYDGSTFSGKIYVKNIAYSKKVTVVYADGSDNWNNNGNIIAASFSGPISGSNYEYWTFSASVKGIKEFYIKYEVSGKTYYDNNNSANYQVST", "glycan array binding signal (z-score)": -0.324}

The reported measurements were obtained from the supplement of paper PMC8728848.
